Listed below: change in vivo at 100 mg/kg/day values for each entry.
System: hyperlipaemic SD male rats
assay.method.text: Hypolipemizing activity, 5 days experimental model, modified Nath diet
Type: in vivo
run.conditions: 120 h, rat, oral, 100 mg/kg/day, by difference between total and HDL, read-out: Cholesterol VLDL + LDL (percent variation vs hyperlipaemic controls)
Counter-ions that a name gives are not always drawn.
A number alone suffices; assume %.

Example entries begin here.
>>> reported_value("CC(C)COC(=O)c1ccc(OCC(O)CSc2nc3cc(Cl)ccc3s2)cc1 (centres unmarked) [Example 10]")
-20.4
>>> reported_value("CC(C)COC(=O)c1ccc(OCC(O)CSc2ncccn2)cc1 (centres unmarked) [Example 5, hydrochloride]")
24
>>> reported_value("CCOc1ccc2nc(SCC(O)COc3ccc(C(=O)OCC(C)C)cc3)sc2c1 (centres unmarked) [Example 9]")
0.9
>>> reported_value("CC(C)COC(=O)c1ccc(OCCSc2nc3c(N)ncnc3n2[C@@H]2O[C@H](CO)[C@@H](O)[C@H]2O)cc1 [Example 27]")
-14.6
>>> reported_value("CC(C)COC(=O)c1ccc(OCC(O)CSc2nc3ccccc3[nH]2)cc1 (centres unmarked) [Example 18]")
0.2

Note to self: change in vivo at 100 mg/kg/day recorded for CC(C)COC(=O)c1ccc(OCC(=O)CSc2nc3c(N)ncnc3n2[C@@H]2O[C@H](CO)[C@@H](O)[C@H]2O)cc1 [Example 28] was -15.1

Note to self: change in vivo at 100 mg/kg/day recorded for CC(C)COC(=O)c1ccc(OCC(=O)CSc2nc3ccccc3o2)cc1 [Example 1] was -6.1

Note to self: change in vivo at 100 mg/kg/day recorded for CC(C)COC(=O)c1ccc(OCC(=O)CSc2nc3c([nH]2)c(=O)n(C)c(=O)n3C)cc1 [Example 3] was -1.3

* * *

Listed below: Cholesterol HDL (percent variation vs hyperlipaemic controls) values for each entry.
Test system: hyperlipaemic SD male rats
assay.method.text: Hypolipemizing activity, 15 days experimental model, modified diet
Type: in vivo
run.conditions: rat, oral, 50 mg/kg/day
Procedure: The hypolipemizing activity of the compounds of the present invention has been evaluated in the rat using SD male animals (Charles River) of an initial weight of 150 g, housed in controlled environment at a temperature of 21°±1° C., relative humidity 60% and a 12 hours light/dark cycle. […]

Example entries begin here.
>>> reported_value("CC(C)COC(=O)c1ccc(OCC(=O)CSc2nc3c(N)ncnc3n2[C@@H]2O[C@H](CO)[C@@H](O)[C@H]2O)cc1")
"+11,3%"
>>> reported_value("CC(C)COC(=O)c1ccc(OCC(O)CSc2nc3ccccc3s2)cc1 (centres unmarked)")
"+1,0%"
>>> reported_value("CC(C)COC(=O)c1ccc(OCC(=O)CSc2nc3ccccc3s2)cc1")
"-24,5%"
>>> reported_value("CC(C)COC(=O)c1ccc(OCC(CSc2nc3c(N)ncnc3n2[C@@H]2O[C@H](CO)[C@@H](O)[C@H]2O)=NNC(N)=O)cc1")
"+15,6%"

We next turn to a different molecule, shown below.
Note to self: Cholesterol HDL (percent variation vs hyperlipaemic controls) recorded for CC(C)COC(=O)c1ccc(OCC(O)CSc2nc3ccccc3o2)cc1 (centres unmarked) was -9,9%

* * *

Tested on: hyperlipaemic SD male rats
assay.method.text: Hypolipemizing activity, 5 days experimental model, modified Nath diet
Assay type: in vivo
run.conditions: 120 h, rat, oral, 100 mg/kg/day, by difference between total and HDL, read-out: Cholesterol VLDL + LDL (percent variation vs hyperlipaemic controls)
Counter-ions that a name gives are not always drawn.
measurement.type: change in vivo at 100 mg/kg/day
Quick note: unit goes after the number.

Example entries begin here.
>>> reported_value("CC(C)COC(=O)c1ccc(OCCCSc2nc3c(N)ncnc3n2[C@@H]2O[C@H](CO)[C@@H](O)[C@H]2O)cc1")
"-10%"
>>> reported_value("CC(C)COC(=O)c1ccc(OCC(O)CSc2nc3cc4ccccc4cc3o2)cc1 (stereo not drawn)")
"17.6%"
>>> reported_value("CC(C)COC(=O)c1ccc(OCC(CSc2nc3ccccc3o2)OC(=O)c2cccnc2)cc1 (stereo not drawn)")
"11.5%"
>>> reported_value("CC(C)COC(=O)c1ccc(OCC(=O)CSc2nc3ccccc3s2)cc1")
"-14.7%"
>>> reported_value("CC(C)COC(=O)c1ccc(OCC(O)CSc2nc3ccccc3s2)cc1 (stereo not drawn)")
"-18.8%"

Note to self: change in vivo at 100 mg/kg/day recorded for CC(C)COC(=O)c1ccc(OCC(O)CSc2nccn2C)cc1 (stereo not drawn) [Example 4, hydrochloride] was 9.2%

Note to self: change in vivo at 100 mg/kg/day recorded for CC(C)COC(=O)c1ccc(OCC(O)CSc2nc3ccccc3o2)cc1 (stereo not drawn) was -22.8%

Note to self: change in vivo at 100 mg/kg/day recorded for CC(C)COC(=O)c1ccc(OCC(CSc2nc3c(N)ncnc3n2[C@@H]2O[C@H](CO)[C@@H](O)[C@H]2O)=NNC(N)=O)cc1 was -37.4%

Note to self: change in vivo at 100 mg/kg/day recorded for CC(C)COC(=O)c1ccc(OCC(CSc2nc3c(N)ncnc3n2[C@@H]2O[C@H](CO)[C@@H](O)[C@H]2O)=NO)cc1 was -6.6%

* * *

Test system: hyperlipaemic SD male rats
assay.method.text: Hypolipemizing activity, 5 days experimental model, modified Nath diet
Type: in vivo
run.conditions: 120 h, rat, oral, 300 mg/kg/day, read-out: Total Cholesterol (percent variation vs hyperlipaemic controls)
measurement.type: change in vivo at 300 mg/kg/day (%)
A number alone suffices; assume %.

Example entries begin here.
>>> reported_value("CC(C)COC(=O)c1ccc(OCCSc2nc3c(N)ncnc3n2[C@@H]2O[C@H](CO)[C@@H](O)[C@H]2O)cc1 [Example 27]")
-18.4
>>> reported_value("CCOc1ccc2nc(SCC(O)COc3ccc(C(=O)OCC(C)C)cc3)sc2c1 (stereo not shown) [Example 9]")
-6.5
>>> reported_value("CC(C)COC(=O)c1ccc(OCC(O)CSc2nc3cc4ccccc4cc3o2)cc1 (stereo not shown) [Example 15]")
-8.2

We next turn to a different compound, shown below.
Note to self: change in vivo at 300 mg/kg/day recorded for CC(C)COC(=O)c1ccc(OCC(CSc2nc3c(N)ncnc3n2[C@@H]2O[C@H](CO)[C@@H](O)[C@H]2O)=NO)cc1 [Example 31] was -24.7

* * *

Test system: hyperlipaemic SD male rats
assay.method.text: Hypolipemizing activity, 5 days experimental model, modified Nath diet
Assay type: in vivo
run.conditions: 120 h, rat, oral, 300 mg/kg/day, read-out: Total Cholesterol (percent variation vs hyperlipaemic controls)
Where a name gives a salt, the structure may show the parent alone.
measurement.type: change in vivo at 300 mg/kg/day (%)
A number alone suffices; assume %.

Note to self: change in vivo at 300 mg/kg/day recorded for CC(C)COC(=O)c1ccc(OCC(O)CSc2nc3cc(Cl)ccc3s2)cc1 (stereo not shown) was -23.3

Note to self: change in vivo at 300 mg/kg/day recorded for CC(C)COC(=O)c1ccc(OCC(O)CSc2nccn2C)cc1 (stereo not shown) [Example 4, hydrochloride] was -2.6

Note to self: change in vivo at 300 mg/kg/day recorded for CC(C)COC(=O)c1ccc(OCC(O)CSc2nc3ccccc3o2)cc1 (stereo not shown) was -37.1

Note to self: change in vivo at 300 mg/kg/day recorded for CC(C)COC(=O)c1ccc(OCC(CSc2nc3ccccc3o2)OC(=O)c2cccnc2)cc1 (stereo not shown) was -7.8

* * *

Listed below: Hepatic index (percent variation vs hyperlipaemic controls) values for each entry.
Test system: hyperlipaemic SD male rats
assay.method.text: Hypolipemizing activity, 15 days experimental model, modified diet
Type: in vivo
run.conditions: rat, oral, 50 mg/kg/day, index = (Liver weight/body weight) × 100

>>> reported_value("CC(C)COC(=O)c1ccc(OCC(O)CSc2nc3ccccc3s2)cc1 (centres unmarked)")
"-1,7%"

Bench note, hyperlipaemic SD male rats: entry CC(C)COC(=O)c1ccc(OCC(=O)CSc2nc3c(N)ncnc3n2[C@@H]2O[C@H](CO)[C@@H](O)[C@H]2O)cc1 , its Hepatic index (percent variation vs hyperlipaemic controls) = +0,6%

* * *

Listed below: Cholesterol VLDL + LDL (percent variation vs hyperlipaemic controls) values for each entry.
Tested on: hyperlipaemic SD male rats
assay.method.text: Hypolipemizing activity, 15 days experimental model, modified diet
Assay type: in vivo
run.conditions: rat, oral, 100 mg/kg/day, by difference between total and HDL

Example entries begin here.
>>> reported_value("CC(C)COC(=O)c1ccc(OCC(=O)CSc2nc3ccccc3s2)cc1")
"-14,0%"
>>> reported_value("CC(C)COC(=O)c1ccc(OCC(O)CSc2nc3ccccc3o2)cc1 (centres unmarked)")
"-40,2%"
>>> reported_value("CC(C)COC(=O)c1ccc(OCC(O)CSc2nc3ccccc3s2)cc1 (centres unmarked)")
"-21,7%"
>>> reported_value("CC(C)COC(=O)c1ccc(OCC(=O)CSc2nc3c(N)ncnc3n2[C@@H]2O[C@H](CO)[C@@H](O)[C@H]2O)cc1")
"-41,7%"

We next turn to a different molecule, shown below.
Note to self: Cholesterol VLDL + LDL (percent variation vs hyperlipaemic controls) recorded for CC(C)COC(=O)c1ccc(OCC(CSc2nc3c(N)ncnc3n2[C@@H]2O[C@H](CO)[C@@H](O)[C@H]2O)=NNC(N)=O)cc1 was -39,7%
